- System: U937 cells (BCR-Abl−)
- ASSAY_PROCEDURE: cells
- CONDITION_SET: Homo sapiens, U-937, 72 h, read-out: IC50 (μM) U937, Table 12; 72 h of treatment, MTT
QUANTITY_NAME: IC50

Requested field: IC50. Item: CN(C)CCCNC(=O)c1cc2cc(NC(=O)c3ccccc3Br)cnc2[nH]1 [ND0009]
> 100 µM

###

- EXPERIMENTAL_SYSTEM: Abl T315I (Homo sapiens (Human), UniProt P00519, T315I)
- ASSAY_PROCEDURE: Reaction Biology Corp. kinase assay, mutated Abl T315I
- Format: biochemical
- CONDITION_SET: Reaction Biology Corp., ATP at 10 μM; read-out: IC50 on kinase Abl T315I (category)
pIC50: −log10 of the molar value.
QUANTITY_NAME: pIC50

Reference set (2 entries):
COC(=O)c1cc2cc(NCc3cc(NC(=O)c4ccc(CN5CCN(C)CC5)cc4)ccc3C)cnc2[nH]1 [ND0118]; 5.00 to 7.00
COC(=O)c1cc2cc(NC(=O)c3cc(NC(=O)c4ccc(CN5CCC(N(C)C)C5)c(C(F)(F)F)c4)ccc3C)cnc2[nH]1 (stereo not drawn) [ND0119]; 5.00 to 7.00

Can you share its pIC50? I mean this compound: COC(=O)c1cc2cc(NCc3ccc4[nH]ccc4c3)cnc2[nH]1 [ND0096]
5.00 to 7.00

###

- EXPERIMENTAL_SYSTEM: Src kinase (Homo sapiens (Human))
- Sequence (P12931 whole entry, looked up): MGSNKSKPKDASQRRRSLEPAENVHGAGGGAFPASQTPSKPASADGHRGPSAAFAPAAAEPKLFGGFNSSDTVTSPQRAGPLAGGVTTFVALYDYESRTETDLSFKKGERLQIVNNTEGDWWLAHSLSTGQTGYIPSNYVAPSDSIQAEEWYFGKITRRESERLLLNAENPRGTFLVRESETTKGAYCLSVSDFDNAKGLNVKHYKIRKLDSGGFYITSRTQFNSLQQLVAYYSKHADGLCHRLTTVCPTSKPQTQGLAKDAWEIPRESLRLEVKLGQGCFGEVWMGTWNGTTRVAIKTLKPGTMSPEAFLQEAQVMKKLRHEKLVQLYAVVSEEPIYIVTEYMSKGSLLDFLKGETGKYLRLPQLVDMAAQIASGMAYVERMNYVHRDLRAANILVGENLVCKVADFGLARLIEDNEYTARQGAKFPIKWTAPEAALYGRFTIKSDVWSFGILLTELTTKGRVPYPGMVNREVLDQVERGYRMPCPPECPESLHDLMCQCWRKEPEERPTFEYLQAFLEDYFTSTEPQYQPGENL
- ASSAY_PROCEDURE: Reaction Biology Corp. kinase assay, Src
- CONDITION_SET: read-out: % inhibition of kinase activity, Src (category), 10 μM; compounds tested by Reaction Biology Corp.
Examples of compounds with documented inhibition at 10 µM follow.

Query for Src kinase (Homo sapiens (Human)): what inhibition at 10 µM does the record show for `COC(=O)c1cc2cc(Nc3ccc(I)cc3)cnc2[nH]1` ?
10 to 50%

`COC(=O)c1cc2cc(NC(=O)c3ccccc3C)cnc2[nH]1` ?
> 50%

`COC(=O)c1cc2cc(Nc3ccncc3)cnc2[nH]1` , same question.
10 to 50%

Another compound: `COC(=O)c1cc2cc(NC(=O)c3cccc(Br)c3)cnc2[nH]1`
10 to 50%

// query: `COC(=O)c1cc2cc(NCc3ccccc3OC)cnc2[nH]1`
> 50%

And for `COC(=O)c1cc2cc(NC(=O)c3cc(C)n[nH]3)cnc2[nH]1` ?
10 to 50%

Now consider `COC(=O)c1cc2cc(Nc3cccc(Br)c3)cnc2[nH]1` and answer again.
< 10%

Here is the next compound: `COC(=O)c1cc2cc(NCc3c(Cl)cccc3Cl)cnc2[nH]1`
> 50%

And what about the compound `COC(=O)c1cc2cc(NC(=O)c3cccs3)cnc2[nH]1` ?
10 to 50%

// query: `COC(=O)c1cc2cc(NCc3nccs3)cnc2[nH]1`
> 50%

###

- EXPERIMENTAL_SYSTEM: Abl kinase (h) (Homo sapiens (Human), UniProt P00519)
- ASSAY_PROCEDURE: Cerep kinase profiling, HTRF assay, Abl kinase
- Type: biochemical
- CONDITION_SET: Table 6; compound incubated at 10 μM; read-out: Percentage inhibition of kinase Abl
- Description: The inhibitory activity of the compounds of the chemical series on different protein kinases was evaluated by Cerep (Cerep Kinase Profiling Service; www.cerep.com). The kinases used in the tests in vitro are human recombinant proteins expressed in human cells, insect cells or in bacteria. […] The activity of the kinase was then detected by an HTRF assay. The HTRF assay (CisBio International) is based on fluorescence transfer, using Europium (Eu3+) cryptate and XL665 respectively as donor and acceptor. […]
Reported inhibition at 10 µM is given for each of the following compounds.
Write the number in % without appending the unit.

Past entries and their recorded results:
COC(=O)c1cc2cc(NC(=O)c3cccc(F)c3F)cnc2[nH]1 [ND0061]; 46
COc1ccc(OC(=O)c2cc3cc(NC(=O)c4ccccc4)cnc3[nH]2)cc1 [ND0004]; 31
COC(=O)c1cc2cc(NC(=O)c3cccc4c3OCC4)cnc2[nH]1 [ND0062]; 6
O=C(Nc1cnc2[nH]c(CNc3ccc(O)cc3)cc2c1)c1ccccc1Br [ND0038]; 94

Lab note: next compound to report on.
Form field: inhibition at 10 µM recorded for O=C(Nc1cnc2[nH]c(C[C@H]3CCCO3)cc2c1)c1ccccc1Br [ND0025] with Abl kinase (h) (Homo sapiens (Human), UniProt P00519) (enter value)
39

Origin of the recorded values: patent US8580815B2
